- Assay Target: GST-RAMANK1-CSL complex (human) (UniProt P46531)
- Protocol Text: ALPHAscreen NTC competition: peptide titrated against Bio-sdnMAML1 binding to GST-RAMANK1-CSL; IC50 with 95% CI
Bridge positions count the residues as written; N and C are the ends. Square brackets hold non-standard residues; d marks the D form. Ends that are not written are not given here. S5 = C=CCCC[C@](C)(N)C(=O)O; I_N = not defined here; βAla = NCCC(=O)O
Overview of recorded pIC50 for various binders
Scale note: pIC50 = -log10(concentration in M).

Binder | pIC50
Ac-W[βAla]ERWRRRL[S5]LCR[S5]HHST[I_N]EARY (staple 10-14; reading uncertain) [SAHM1-52] | 6.21

Task: What value of pIC50 has been reported for the following binder? Ac-W[βAla]ERWRRRI[S5]YCR[S5]HHST (staple 10-14) [SAHM1-55]
Output: 6.60

Task: What value of pIC50 has been reported for the following binder? Ac-W[βAla]ERWRRRI[S5]YFR[S5]HHST (staple 10-14) [SAHM1-56 (E21-T36 scaffold with L23W, L29Y and C30F)]
Output: 6.66
